List of GI50 tested on HCT-15.

Recorded results for 3 compounds are shown here.
{"columns": ["compound", "GI50"],
 "data": [
  ["COc1cc(-c2cc(=O)c3c(O)c(OC)c(OC)c(OC)c3o2)cc(OC)c1OC", "> 100 µM"],
  ["CC/C=C\\C/C=C\\C/C=C\\CCCCCCCC(=O)OC(COC(=O)CCCCCCCCCCCCCCCCC)COC1OC(CO)C(O)C(O)C1O (stereo not given)", "> 25 µM"],
  ["Cn1c2cccc3nnc4cccc(c4c32)n1C", "> 100 µM"]
]}

Query: Quick check: GI50 of C=C(CCOC)CCC1CCCCC(=C)[C@H]1OC(C)=O (stereo not given in full) ?
Reply: > 100 µM

Query: Next: COc1cccc(/C=C2\CCC(C)(CN(C)C)C2=O)c1 (stereo not given)
Reply: 35.6 µM

----------
System: A549
Test: NCI tumour cell line growth inhibition, 48 h
Activity calls are given as the source filed them. No stated cut-off is given here; in the data, active = GI50 up to about 1.1 µM and inactive = higher. Residues, ends and D or L forms follow the SMILES beside them.
# GI50 per entry

Known results for molecules:
{"columns": ["molecule", "tested-target", "test-result"],
 "data": [
  ["CCCC1C(=O)C(CC)Cc2c(OC)ccc(OC)c21 (stereo not given)", "A549", "> 100 µM (inactive)"],
  ["CCC(C)C(NC(=O)C(CC(C)C)NC(=O)CNC(=O)C(NC(=O)C1CCCN1C(=O)C(CC(C)C)NC(=O)C(N)Cc1ccccc1)C(C)CC)C(=O)NC(CC(C)C)C(N)=O (stereo not given) (H-FLPIGLIL-NH2; configuration not given here)", "A549", "> 75 µM (inactive)"],
  ["COc1ccc2c3c1OC1C34CCN(C)C(C2)C4=CC(I)C1(OC)OC (stereo not given)", "A549", "22.2 µM (inactive)"],
  ["COc1ccc(-c2cc(-c3ccccc3)nc(N)n2)c(O)c1", "A549", "12.8 µM (inactive)"],
  ["C/C(=N\\NS(=O)(=O)c1ccc(C)cc1)c1c(O)cc(C)oc1=O", "A549", "> 100 µM (inactive)"]
]}

Moving on to another molecule below.
Query: Recorded GI50 of C(=C\c1nccs1)/c1cccc(/C=C/c2nccs2)n1 , please.
Reply: > 50 µM (inactive)

----------
System: LXFL 529
Test: NCI tumour cell line growth inhibition, 48 h
Active and inactive are the calls of the source. No stated cut-off is given here; in the data, active = GI50 up to about 1.1 µM and inactive = higher.
assay-readout: GI50

Query: Which GI50 value is on record for CC(=O)O[C@H]1[C@H](O[C@H]2CC[C@]34C[C@]35CC[C@]3(C)[C@@H]([C@@]6(C)CC[C@@H](C(C)(C)O)O6)[C@@H](O)C[C@@]3(C)[C@@H]5C[C@H](O[C@@H]3O[C@H](CO)[C@@H](O)[C@H](O)[C@H]3O)[C@H]4C2(C)C)OC[C@@H](O)[C@@H]1O ?
Reply: 74.8 µM (inactive)

Query: Record: Cc1nc2c(=O)n(C)c(=O)nc-2n(-c2ccc(Cl)cc2)c1C
Reply: 62.7 µM (inactive)

Query: Next: O=C(N/N=C(\C1=Nc2ccc(Cl)cc2NC1O)C(O)/C=C/c1ccccc1)c1ccncc1 (stereo not drawn)
Reply: > 100 µM (inactive)

----------
GI50 values by entry
System: NCI-H226
Assay: NCI tumour cell line growth inhibition, 48 h
The source made the active and inactive calls. No stated cut-off is given here; in the data, active = GI50 up to about 1.1 µM and inactive = higher.

Known results for molecules:
{"columns": ["molecule", "tested-target", "assay-readout", "test-result"],
 "data": [
  ["CC1(C)N=C(N)N=C(N)N1c1cccc(OCc2cccc([N+](=O)[O-])c2)c1", "NCI-H226", "GI50", "> 100 µM (inactive)"],
  ["O=C(NC1C2CC3CC(C2)CC1C3)c1ccncn1 (centres undefined)", "NCI-H226", "GI50", "> 100 µM (inactive)"],
  ["CC(C)(C)c1cc(C(=O)/C=C/c2cc[nH]n2)cc(C(C)(C)C)c1O", "NCI-H226", "GI50", "5.73 µM (inactive)"],
  ["COc1cccc(-n2c3nc(=O)n(C)c(=O)c-3nc3ccccc32)c1", "NCI-H226", "GI50", "17.7 µM (inactive)"],
  ["O=C1c2ccccc2C(=O)N1CCn1ccc(NC(c2ccccc2)(c2ccccc2)c2ccccc2)nc1=O", "NCI-H226", "GI50", "18.7 µM (inactive)"]
]}

Query: Need GI50, item Oc1cccc(-c2cn3cc(Cl)ccc3n2)c1
Reply: 91.4 µM (inactive)

Query: And for O=C1O[C@H]2[C@@H]3OC(=O)c4cc(O)c(O)c(O)c4-c4c(cc(O)c(O)c4O)C(=O)OC[C@H]2O[C@@H](OC(=O)c2cc(O)c(O)c(O)c2)[C@@H]3OC(=O)c2cc(O)c(O)c3c2[C@@H]2C1=CC(=O)C(O)(O)C2(O)O3 (some centres undefined) ?
Reply: 23.2 µM (inactive)

Query: // query: CNC1C(O)C(OC2C(N)CC(N)C(OC3OC(C(C)O)C(O)C(O)C3N)C2O)OCC1(C)O (centres undefined)
Reply: > 100 µM (inactive)

Query: Queued: N=S(c1ccccc1)c1ccccc1[N+](=O)[O-] (centres undefined)
Reply: 11.9 µM (inactive)

Query: Request: CN(CCc1ccc(Br)cc1)CCN1CCCCC1
Reply: 33.4 µM (inactive)

Query: Repeat with COc1ccc(/C=C2\N=C(N3CCCC(CO)C3)NC2=O)cc1 (centres undefined)
Reply: > 100 µM (inactive)

Query: Lookup O=S(=O)(O)CCCc1cccc2ccccc12
Reply: > 100 µM (inactive)

Query: Next entry: CC(C)=CCc1c2c(c3occ(-c4ccc(O)c(O)c4)c(=O)c3c1O)C=CC(C)(C)O2
Reply: 16.9 µM (inactive)

Query: Another molecule to look at: COc1cccc(C2CC(C)(O)Oc3cc4c(cc32)OCO4)c1 (centres undefined)
Reply: 17.3 µM (inactive)
